Quick list: self-cleavage per entry.
B1: HDV Ribozyme (parent)
chain: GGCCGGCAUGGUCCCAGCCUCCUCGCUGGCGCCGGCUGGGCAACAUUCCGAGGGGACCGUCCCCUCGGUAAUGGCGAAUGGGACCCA

# Variants of: B1
# assay-text: self-cleavage, relative activity (ratio to wild type); higher = more cleavage; co-transcriptional
measured-parameter: self-cleavage

primary-sequence | reported
GGCCGGCAUGGUCCCAGCCUCCUCGCUGGCGCCGGCUGGGCAACAUUCCGAGGGUAGCGUCCCCUCGGUAAUGGCGAAUGGGACCCA [G55U C57G] | 0.997
GGCCGGCAUGGUCCCAGCCUCCUCGCUGGCGCCGGCUGGGCAAAAUUCCGAGGGGACCGGCCCCUCGGUAAUGGCGAAUGGGACCCA [C44A U60G] | 0.554
GGCCGGCAUGGUCCCAGUCUCCUCGCUGGCGCCGGCUGGGCAACAUUCCGAGGGGACCUUCCCCUCGGUAAUGGCGAAUGGGACCCA [C18U G59U] | 0.67
GGCCGGCAUGGUCCCAGCCUCCUCGCUGGCGCCGGCUGGGCAACUUUCCGAGGGGACCGUCCCCUCGGUAAUGUCGAAUGGGACCCA [A45U G74U] | 0.305
GGCCGGCAUGGUCCCAGCCUCUUCGCUGGCGCCGGCUGGGCAACAUUCCGAGGGGACCGUCCCCUCGGUCAUGGCGAAUGGGACCCA [C22U A70C] | 0.656
GGCCGGCAUGGUCCCAGCCUCCUCGCUGGCGCCGGCUGGGCAACAUUCCGAGGGGAACGUCCCCUCGGCAAUGGCGAAUGGGACCCA [C57A U69C] | 0.892
GGCCGGCAUCGUCCCAGCCUCCUCGCUGGCGCCGUCUGGGCAACAUUCCGAGGGGACCGUCCCCUCGGUAAUGGCGAAUGGGACCCA [G10C G35U] | 0.374
GGCCGGCAUGGUCCCAGACUCCUCGCUGGCGCCGGCUGGGCAACAUUCCGAGGGGACCGUCCCCUCGGUAUUGGCGAAUGGGACCCA [C18A A71U] | 0
GGCCGGCAUGGUCCCACCCUCCUCGCUGGCGCCGGCUGGGCAACAUUCCGAUGGGACCGUCCCCUCGGUAAUGGCGAAUGGGACCCA [G17C G52U] | 0.363
GGCCGGCAUGGUCCCAGCCUCCUCGCUGGCGCCGGCUGGGCAACAUUCCGAGGGGACCGUUCCCUCGGUAAUGGCGAAUAGGACCCA [C61U G80A] | 0.242
AGCCGGCAUGGUCCCAGCCUCCUCGCUGGCGCGGGCUGGGCAACAUUCCGAGGGGACCGUCCCCUCGGUAAUGGCGAAUGGGACCCA [G1A C33G] | 0.148
GGCCGGCAUGGUCCCAGCCUCCUCGCUGGCGCCGACUCGGCAACAUUCCGAGGGGACCGUCCCCUCGGUAAUGGCGAAUGGGACCCA [G35A G38C] | 0.0652
AGCCGGCAUGGUCCCAGCCUCCUCGCUGGCGCAGGCUGGGCAACAUUCCGAGGGGACCGUCCCCUCGGUAAUGGCGAAUGGGACCCA [G1A C33A] | 0.0554
GGCCCGCAUGGUCCCAGCCUCCUCGCUGGCGCCGGCUGGGCAACAUUCCGAGGGGACAGUCCCCUCGGUAAUGGCGAAUGGGACCCA [G5C C58A] | 0.162
GGCCGGCAUGGUCCCAGCCUCCUCGCUGGCGCCGGCUGGGCAACAUUCCGAUGGGACCGUCCCCUCGGUAAUAGCGAAUGGGACCCA [G52U G73A] | 0.546
GGCCGGCAUGGUCCCAGCCUCUUCGCUGGCGCCGGCUGGGCAACAUUCCGAGGGGACCGUCCCCUCGGUAAUGGCGAAUGGGACACA [C22U C85A] | 0.59
GGCCGGCAUGGUCCCGGCCUCCUCGCUGGCGCCGGCUGGGCAACAUUCCGAGGGGACCGUCCCCUCGGUAAUGGCGAAUGGGACACA [A16G C85A] | 1.32
